molecular target: Human immunodeficiency virus type 1 protease (Human immunodeficiency virus 1); assay: Relative loss of potency of compound in inhibiting Protease was determined
Endpoint Label: Relative loss of potency

Answered cases to consult:
>  <Structure Smiles String>
CC(C)C[C@H](NC(=O)[C@H]([C@H](C)O)N(C)C(=O)CCCCCCCCCCCCCCC(=O)N[C@@H](C(N)=O)C(=O)N[C@H](Cc1ccccc1)C(=O)O)C(=O)N[C@@H](Cc1ccccc1)C(N)=O

>  <Relative loss of potency>
1.4

$$$$
>  <Structure Smiles String>
CC(C)C[C@H](NC(=O)[C@@H](NC(=O)CCCCCCCCCCCCCCC(=O)N[C@@H](C(N)=O)C(=O)N[C@H](Cc1ccccc1)C(=O)O)[C@H](C)O)C(=O)N(C)[C@@H](Cc1ccccc1)C(N)=O

>  <Relative loss of potency>
2.2

$$$$
>  <Structure Smiles String>
CC(C)C[C@@H](C(=O)N[C@@H](Cc1ccccc1)C(N)=O)N(C)C(=O)[C@@H](NC(=O)CCCCCCCCCCCCCCC(=O)N[C@@H](C(N)=O)C(=O)N[C@H](Cc1ccccc1)C(=O)O)[C@H](C)O

>  <Relative loss of potency>
1.4

$$$$
>  <Structure Smiles String>
CC(C)C[C@H](NC(=O)[C@@H](NC(=O)CCCCCCCCCCCCCCC(=O)N[C@@H](C(N)=O)C(=O)N[C@H](Cc1ccccc1)C(=O)O)[C@H](C)O)C(=O)N[C@@H](Cc1ccccc1)C(N)=O

>  <Relative loss of potency>
1

$$$$

Please look at the following compound next.
// query Relative loss of potency value for entry CC(C)C[C@H](NC(=O)[C@@H](NC(=O)CCCCCCCCCCCCCCC(=O)N[C@@H](C(N)=O)C(=O)N(C)[C@H](Cc1ccccc1)C(=O)O)[C@H](C)O)C(=O)N[C@@H](Cc1ccccc1)C(N)=O
1.6

* * *

The entries below are paired with their reported pIC50.
molecular target: Human immunodeficiency virus type 1 protease (Human immunodeficiency virus 1, UniProt Q72874)
Scale for pIC50: -log10 of concentration given in mol/L; no unit attached.

Worked cases, answers included:
>  <Structure Smiles String>
CC(C)C[C@H](NC(=O)[C@@H](NC(=O)CCCCCCCCCCCCCCC(=O)N[C@@H](C(N)=O)C(=O)N[C@H](Cc1ccccc1)C(=O)O)[C@H](C)O)C(=O)N[C@@H](Cc1ccccc1)C(N)=O

>  <pIC50>
5.23

$$$$
>  <Structure Smiles String>
CC(C)C[C@@H](C(=O)N[C@@H](Cc1ccccc1)C(N)=O)N(C)C(=O)[C@@H](NC(=O)CCCCCCCCCCCCCCC(=O)N[C@@H](C(N)=O)C(=O)N[C@H](Cc1ccccc1)C(=O)O)[C@H](C)O

>  <pIC50>
5.10

$$$$

Need pIC50, item CC(C)C[C@H](NC(=O)[C@H]([C@H](C)O)N(C)C(=O)CCCCCCCCCCCCCCC(=O)N[C@@H](C(N)=O)C(=O)N[C@H](Cc1ccccc1)C(=O)O)C(=O)N[C@@H](Cc1ccccc1)C(N)=O
5.08

Query CC(C)C[C@H](NC(=O)[C@@H](NC(=O)CCCCCCCCCCCCCCC(=O)N[C@@H](C(N)=O)C(=O)N(C)[C@H](Cc1ccccc1)C(=O)O)[C@H](C)O)C(=O)NCCc1ccccc1 next
5.24

* * *

Reported pIC50 values, Human immunodeficiency virus type 1 protease (Human immunodeficiency virus 1).
# reply with the number alone; pIC50 is -log10 of concentration in mol/L

Reference set (2 entries):
>  <Structure Smiles String>
CC(C)C[C@H](NC(=O)[C@@H](NC(=O)CCCCCCCCCCCCCCC(=O)N(C)[C@@H](C(N)=O)C(=O)N[C@H](Cc1ccccc1)C(=O)O)[C@H](C)O)C(=O)N[C@@H](Cc1ccccc1)C(N)=O

>  <Target System>
Human immunodeficiency virus type 1 protease (Human immunodeficiency virus 1)

>  <Experimental Value>
5.35

$$$$
>  <Structure Smiles String>
CC(C)C[C@H](NC(=O)[C@@H](NC(=O)CCCCCCCCCCCCCCC(=O)N[C@@H](C(N)=O)C(=O)N[C@H](Cc1ccccc1)C(=O)O)[C@H](C)O)C(=O)N(C)[C@@H](Cc1ccccc1)C(N)=O

>  <Target System>
Human immunodeficiency virus type 1 protease (Human immunodeficiency virus 1)

>  <Experimental Value>
4.89

$$$$

Now for another entry.
Quick one: pIC50 of CC(C)C[C@H](NC(=O)[C@@H](NC(=O)CCCCCCCCCCCCCCC(=O)N[C@@H](C(N)=O)C(=O)N(C)[C@H](Cc1ccccc1)C(=O)O)[C@H](C)O)C(=O)N[C@@H](Cc1ccccc1)C(N)=O ?
5.02
